- test.system: T1, cyno CD3 (cyno (cynomolgus monkey), UniProt Q95LI5 22-198)
- T1 construct: whole, on cells; also called CD3 on Cynomolgus T-cells
- T1 sequence (Q95LI5 22-198): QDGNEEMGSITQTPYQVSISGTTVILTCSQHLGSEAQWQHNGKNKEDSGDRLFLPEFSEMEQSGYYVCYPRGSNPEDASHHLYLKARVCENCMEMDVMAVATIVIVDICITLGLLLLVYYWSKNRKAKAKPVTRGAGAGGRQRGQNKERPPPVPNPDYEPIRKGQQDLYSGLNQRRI
- protocol.notes: cell binding, activated cyno PBMC; E. coli protein
Below: a set of entries, each annotated with reported EC50.
Output spec: scalar in nM, unitless text.

Fab1-HK129-Folate (Fab, V domains shown, pAF at HK129 (Kabat) conjugated to folate (oxime), From E. coli; also called Folate lead; parent control) VH: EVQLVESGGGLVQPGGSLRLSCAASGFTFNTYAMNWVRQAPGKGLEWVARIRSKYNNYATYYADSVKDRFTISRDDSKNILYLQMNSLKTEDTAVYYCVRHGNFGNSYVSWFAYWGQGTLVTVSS VL: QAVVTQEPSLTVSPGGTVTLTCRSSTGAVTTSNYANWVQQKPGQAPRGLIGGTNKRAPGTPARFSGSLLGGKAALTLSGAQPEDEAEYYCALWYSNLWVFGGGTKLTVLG : 2.05
Fab1 wildtype (vH1.2+CH1 / vL1.2+CL), humanized anti-CD3 SP34 (Fab, V domains shown, also called Fab1-WT; vH1.2+vL1.2) VH: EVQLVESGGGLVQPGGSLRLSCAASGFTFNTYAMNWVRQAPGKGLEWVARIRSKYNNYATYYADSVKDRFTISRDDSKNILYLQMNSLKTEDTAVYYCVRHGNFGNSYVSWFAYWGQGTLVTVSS VL: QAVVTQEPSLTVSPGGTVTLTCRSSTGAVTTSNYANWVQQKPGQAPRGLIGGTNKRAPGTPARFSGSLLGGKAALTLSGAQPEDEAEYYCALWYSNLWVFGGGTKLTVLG : 0.75

EC50 reading for Fab1-HA114-pAF1 (Fab, V domains shown, para-acetyl-phenylalanine (pAF) at HA114 (Kabat), From E. coli; also called Fab1 HA114pAF, unconjugated) VH: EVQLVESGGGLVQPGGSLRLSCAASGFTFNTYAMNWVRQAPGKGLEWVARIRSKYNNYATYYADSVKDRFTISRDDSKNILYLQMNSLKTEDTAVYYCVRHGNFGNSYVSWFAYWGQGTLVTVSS VL: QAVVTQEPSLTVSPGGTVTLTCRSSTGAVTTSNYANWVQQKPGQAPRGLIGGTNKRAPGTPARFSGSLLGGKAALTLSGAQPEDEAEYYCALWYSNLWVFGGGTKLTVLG : 1.33

Per the records, this binder ( Fab1-HK129-pAF (Fab, V domains shown, para-acetyl-phenylalanine (pAF) at HK129 (Kabat), From E. coli; carries no folate and no PEG; also called Fab1-HK129-pAF1; anti-CD3 Fab1-HK129-pAF control) VH: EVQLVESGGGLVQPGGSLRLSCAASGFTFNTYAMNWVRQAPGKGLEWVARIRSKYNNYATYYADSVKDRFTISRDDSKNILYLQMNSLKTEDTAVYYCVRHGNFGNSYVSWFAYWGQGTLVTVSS VL: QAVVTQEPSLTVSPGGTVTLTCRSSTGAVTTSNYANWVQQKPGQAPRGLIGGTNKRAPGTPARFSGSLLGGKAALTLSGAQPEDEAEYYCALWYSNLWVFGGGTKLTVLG ) has EC50 equal to 1.15
